These entries and their values trace back to paper PMC8097421.

experiment: Cytotoxicity in uninfected BHK-21 cells; assay type: cell-based; conditions: hamster, 3-day incubation, read-out: CPE assay CC50
Assay endpoint: CC50 at 3 days

Exercise: Which CC50 at 3 days is listed for CC(C)OC(=O)[C@H](C)N[P@](=O)(OC[C@H]1O[C@@H](n2ccc(=O)[nH]c2=O)[C@](C)(F)[C@@H]1O)Oc1ccccc1 [Sofosbuvir] ?
Key: > 100 µM

###

assay: in vitro; conditions: human, intracellular half-life (t1/2) of AT-9010
Assay endpoint: half-life at 10 µM

Exercise: Which half-life at 10 µM is listed for "C[C@@]1(F)[C@H](O)[C@@H](COP(=O)(O)OP(=O)(O)OP(=O)(O)O)O[C@H]1n1cnc2c(=O)[nH]c(N)nc21" ?
Key: 38 to 39 h
